Target: Human plasma kallikrein (Homo sapiens, UniProt P03952)
Construct: yields a heavy chain (371 amino acids) and a light chain (248 amino acids)
Sequence (P03952 391-638 limits assumed): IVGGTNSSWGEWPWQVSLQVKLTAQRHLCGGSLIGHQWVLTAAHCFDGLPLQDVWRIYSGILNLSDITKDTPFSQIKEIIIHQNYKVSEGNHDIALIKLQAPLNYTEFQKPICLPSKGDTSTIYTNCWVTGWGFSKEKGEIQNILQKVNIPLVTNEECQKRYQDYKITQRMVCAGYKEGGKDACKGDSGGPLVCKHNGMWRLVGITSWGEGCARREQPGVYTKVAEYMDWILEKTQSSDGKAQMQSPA
Sequence (P03952 20-390 partner limits assumed): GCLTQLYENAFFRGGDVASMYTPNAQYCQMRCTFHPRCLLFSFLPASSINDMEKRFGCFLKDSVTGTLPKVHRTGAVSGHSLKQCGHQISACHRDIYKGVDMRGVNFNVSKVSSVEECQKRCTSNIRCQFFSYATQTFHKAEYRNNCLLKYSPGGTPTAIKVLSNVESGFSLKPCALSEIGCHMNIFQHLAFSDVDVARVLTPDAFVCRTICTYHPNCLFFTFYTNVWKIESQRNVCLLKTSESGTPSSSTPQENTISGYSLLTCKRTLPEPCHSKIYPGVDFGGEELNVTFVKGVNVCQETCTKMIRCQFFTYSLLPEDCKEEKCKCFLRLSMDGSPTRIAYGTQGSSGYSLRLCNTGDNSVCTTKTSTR
Assay: Kallikrein Assay (fluorogenic substrate hydrolysis, AFC release)
Details: purified Human plasma kallikrein 0.5 nM; substrate Acetyl-K—P—R-AFC 100 mM; 50 mM HEPES pH 7.4
pIC50: −log10 of the molar value.
MEASURED PARAMETER: pIC50

{"MOLECULE": "Cc1cc(N2C[C@H]3C[C@H]3C2=O)ncc1[C@@H](C)c1cc(C(=O)N[C@H]2C[C@@H](c3cc(Cl)ccc3C#N)C2)n(C)n1", "pIC50": 7.57}
{"MOLECULE": "Cc1c([C@@H](C)n2cc(C(=O)NC3CC(c4cc(Cl)ccc4C#N)C3)cn2)cnc(N2C[C@H]3C[C@H]3C2=O)c1Cl (single isomer, unassigned)", "pIC50": 8.72}
{"MOLECULE": "Cc1cc(C(C)(C)n2cc(C(=O)N[C@H]3C[C@@H](c4cc(Cl)ccc4C#N)C3)nn2)cnc1N1C[C@H]2C[C@H]2C1=O", "pIC50": 8.00}
{"MOLECULE": "Cc1ccc(C#N)c([C@H]2C[C@@H](NC(=O)c3cnn(C(C)c4cnc(N5C[C@H]6C[C@H]6C5=O)c(C)c4C)c3)C2)c1 (single isomer, unassigned) [Example 46]", "pIC50": 8.57}
{"MOLECULE": "Cc1cc(N2C[C@H]3C[C@H]3C2=O)nnc1C(C)n1cc(C(=O)N[C@H]2C[C@@H](c3cc(Cl)ccc3C#N)C2)cn1 (single isomer, unassigned) [Example 47]", "pIC50": 8.68}
{"MOLECULE": "Cc1c([C@H](C)n2cc(C(=O)NC34CCCC(c5cc(Cl)ccc5C#N)(C3)C4)nn2)cnc(N2C[C@H]3C[C@H]3C2=O)c1C", "pIC50": 8.24}

[I] Cc1c([C@H](C)n2cc(C(=O)N[C@H]3C[C@@H](c4cc(Cl)ccc4C(N)=O)C3)nn2)cnc(N2C[C@H]3C[C@H]3C2=O)c1C
[II] Cc1nc(C(C)n2cc(C(=O)N[C@H]3C[C@@](C)(c4cc(Cl)ccc4C#N)C3)nn2)cnc1N1C[C@H]2C[C@H]2C1=O (single isomer, unassigned) [Example 109]
[III] N#Cc1ccc(Cl)cc1[C@H]1C[C@@H](NC(=O)c2cnn(Cc3cnc(N4C[C@@H]5C[C@@H]5C4=O)nc3)c2)C1 (stereo in doubt)
[IV] CC(c1ccc(N2C[C@H]3C[C@H]3C2=O)nc1)n1cc(C(=O)N[C@H]2C[C@@H](c3cc(Cl)ccc3C#N)C2)nn1 (single isomer, unassigned) [Example 58]
Task: # rank_down: sort by pIC50, max first Output the labels ranked as instructed.
Result: II, I, IV, III
